Data provenance: patent US20070032417A1

Assignment: determine reported IC50 for the given compounds.
Target: Bcl-2 ΔC22 (Homo sapiens, UniProt P10415)
Test: Competition assay using biotinylated Bim-BH3 peptide, Bcl-2 ΔC22
Format: binding
Conditions: competition with biotinylated Bim-BH3 peptide
*1 amine or outer side, *2 acyl side, *3 side chain or, on linkers, in order; H or OH if unused. Where a SMILES comes first, the peptide text is derived from it. Bridges are numbered along the chain shown (N, C = ends). Hexamethylenediamine = C(CCCN[*:2])CCN[*:1]; NH(CH2)5NH = C(CCN[*:1])CCN[*:2]; X1 = O=C(CN[*:1])NCCN[*:2]
Give bare numbers, in nM.

Example cases with answers are listed next.
[[record]]
compound = "CC[C@H](C)[C@H](NC(C)=O)C(=O)N[C@@H](C)C(=O)N[C@@H](CCC(N)=O)C(=O)N[C@H]1CCC(=O)NCCCCCNC(=O)CC[C@@H](C(=O)N[C@@H](Cc2ccccc2)C(N)=O)NC(=O)[C@H](CC(=O)O)NC(=O)CNC(=O)[C@H]([C@@H](C)CC)NC(=O)[C@H](CCCNC(=N)N)NC(=O)[C@H](CCCNC(=N)N)NC(=O)[C@H](CC(C)C)NC1=O [Peptide B, Acetyl-IAQ(E1)LRRIGD(E2)F-amide] (Ac-IAQELRRIGDEF-NH2; linker 4-11 via NH(CH2)5NH)"
value = 290

[[record]]
compound = "CC[C@H](C)[C@H](NC(=O)[C@@H]1CCC(=O)NCCCCCNC(=O)CC[C@H](NC(C)=O)C(=O)N[C@@H]([C@@H](C)CC)C(=O)N[C@@H](C)C(=O)N[C@@H](CCC(N)=O)C(=O)N[C@@H](CCC(=O)O)C(=O)N[C@@H](CC(C)C)C(=O)N[C@@H](CCCNC(=N)N)C(=O)N1)C(=O)NCC(=O)N[C@@H](CC(=O)O)C(=O)N[C@@H](CCC(=O)O)C(=O)N[C@@H](Cc1ccccc1)C(N)=O [A, Ac-E-IAQELR-E-IGDEF-NH2] (Ac-EIAQELREIGDEF-NH2; linker 1-8 via NH(CH2)5NH)"
value = 26000

[[record]]
compound = "CC[C@H](C)[C@H](NC(C)=O)C(=O)N[C@@H](C)C(=O)N[C@@H](CCC(N)=O)C(=O)N[C@H]1CCC(=O)NCC(=O)NCCNC(=O)CC[C@@H](C(=O)N[C@@H](Cc2ccccc2)C(N)=O)NC(=O)[C@H](CC(=O)O)NC(=O)CNC(=O)[C@H]([C@@H](C)CC)NC(=O)[C@H](CCCNC(=N)N)NC(=O)[C@H](CCCNC(=N)N)NC(=O)[C@H](CC(C)C)NC1=O [D] (Ac-IAQELRRIGDEF-NH2; linker 4-11 via X1)"
value = 6900


Now turn to the next compound.
Exercise: Fill in reported IC50 for this entry: CC[C@H](C)[C@H](NC(C)=O)C(=O)N[C@@H](C)C(=O)N[C@@H](CCC(N)=O)C(=O)N[C@H]1CCC(=O)NCCCCCCNC(=O)CC[C@@H](C(=O)N[C@@H](Cc2ccccc2)C(N)=O)NC(=O)[C@H](CC(=O)O)NC(=O)CNC(=O)[C@H]([C@@H](C)CC)NC(=O)[C@H](CCCNC(=N)N)NC(=O)[C@H](CCCNC(=N)N)NC(=O)[C@H](CC(C)C)NC1=O [C, Ac-IAQ-E-LRRIGD-E-F-NH2] (Ac-IAQELRRIGDEF-NH2; linker 4-11 via Hexamethylenediamine)
Solution: 2600
